Where these numbers come from: ChEMBL document CHEMBL4765454

- ASSAY NOTES: Selectivity ratio of EC50 for mouse NIH3T3 cells to EC50 for human FaDu cells
READOUT NAME: Ratio EC50
Answer with a bare number; do not write a unit.

// worked examples, Ratio EC50 included
C=C(C)[C@@H]1CC[C@]2(C(=O)Nc3cncc4ccccc34)CC[C@]3(C)[C@H](CC[C@@H]4[C@@]5(C)C[C@H](OC(C)=O)[C@H](OC(C)=O)C(C)(C)[C@@H]5CC[C@]43C)[C@@H]12 : 7.5
C=C(C)[C@@H]1CC[C@]2(C(=O)NCc3ccccc3)CC[C@]3(C)[C@H](CC[C@@H]4[C@@]5(C)CC[C@H](OC(C)=O)C(C)(C)[C@@H]5CC[C@]43C)[C@@H]12 : 3.1
C=C(C)[C@@H]1CC[C@]2(C(=O)Nc3cncc4ccccc34)CC[C@]3(C)[C@H](CC[C@@H]4[C@@]5(C)CC[C@H](OC(C)=O)C(C)(C)[C@@H]5CC[C@]43C)[C@@H]12 : 59.7
C=C(C)[C@@H]1CC[C@]2(C(=O)O)CC[C@]3(C)[C@H](CC[C@@H]4[C@@]5(C)C[C@H](OC(C)=O)[C@H](OC(C)=O)C(C)(C)[C@@H]5CC[C@]43C)[C@@H]12 : 1

Now let's try a different one.
Record C=C(C)[C@@H]1CC[C@]2(C(=O)O)CC[C@]3(C)[C@H](CC[C@@H]4[C@@]5(C)CC[C@H](OC(C)=O)C(C)(C)[C@@H]5CC[C@]43C)[C@@H]12 . Reported Ratio EC50: 4.2

----------
Reported selectivity ratio is given for each of the following compounds.
- ASSAY NOTES: Selectivity ratio of EC50 for mouse NIH3T3 cells to EC50 for human A2780 cells
- Assay type: toxicity
- CONDITION INFO: NIH3T3 cells versus A2780 cells, read-out: Ratio EC50
When you answer, write just the number.

Completed entries (count: 4):
C=C(C)[C@@H]1CC[C@]2(C(=O)O)CC[C@]3(C)[C@H](CC[C@@H]4[C@@]5(C)C[C@H](OC(C)=O)[C@H](OC(C)=O)C(C)(C)[C@@H]5CC[C@]43C)[C@@H]12 : 1.6
CC(=O)O[C@H]1CC[C@]2(C)[C@H]3CC[C@@H]4[C@H]5[C@H](C(C)=O)CC[C@]5(C(=O)Nc5cccc6ncccc56)CC[C@@]4(C)[C@]3(C)CC[C@H]2C1(C)C : 5.6
C=C(C)[C@@H]1CC[C@]2(C(=O)Nc3cccc4ncccc34)CC[C@]3(C)[C@H](CC[C@@H]4[C@@]5(C)C[C@H](OC(C)=O)[C@H](OC(C)=O)C(C)(C)[C@@H]5CC[C@]43C)[C@@H]12 : 37
C=C(C)[C@@H]1CC[C@]2(C(=O)O)CC[C@]3(C)[C@H](CC[C@@H]4[C@@]5(C)CC[C@H](OC(C)=O)C(C)(C)[C@@H]5CC[C@]43C)[C@@H]12 : 1.6

Let us examine a further case.
The compound listed as C=C(C)[C@@H]1CC[C@]2(C(=O)Nc3cccc4ncccc34)CC[C@]3(C)[C@H](CC[C@@H]4[C@@]5(C)CC[C@H](OC(C)=O)C(C)(C)[C@@H]5CC[C@]43C)[C@@H]12 has a reported selectivity ratio of 5.9

----------
- ASSAY NOTES: Selectivity ratio of EC50 for mouse NIH3T3 cells to EC50 for human MCF7 cells
- Type: toxicity
- CONDITION INFO: NIH3T3 cells versus MCF7 cells, read-out: Ratio EC50
READOUT NAME: selectivity ratio

// worked examples, selectivity ratio included
CC(=O)O[C@H]1CC[C@]2(C)[C@H]3CC[C@@H]4[C@H]5[C@H](C(C)=O)CC[C@]5(C(=O)Nc5cccc6ncccc56)CC[C@@]4(C)[C@]3(C)CC[C@H]2C1(C)C : 4.3
CC(=O)O[C@H]1CC[C@]2(C)[C@H]3CC[C@@H]4[C@H]5[C@H](C(C)=O)CC[C@]5(C(=O)Nc5cncc6ccccc56)CC[C@@]4(C)[C@]3(C)CC[C@H]2C1(C)C : 3.2
C=C(C)[C@@H]1CC[C@]2(C(=O)Nc3cncc4ccccc34)CC[C@]3(C)[C@H](CC[C@@H]4[C@@]5(C)C[C@H](OC(C)=O)[C@H](OC(C)=O)C(C)(C)[C@@H]5CC[C@]43C)[C@@H]12 : 4.1
CC(=O)O[C@H]1C[C@]2(C)[C@H]3CC[C@@H]4[C@H]5[C@H](C(C)=O)CC[C@]5(C(=O)NCc5ccccc5)CC[C@@]4(C)[C@]3(C)CC[C@H]2C(C)(C)[C@H]1OC(C)=O : 5.8
C=C(C)[C@@H]1CC[C@]2(C(=O)O)CC[C@]3(C)[C@H](CC[C@@H]4[C@@]5(C)C[C@H](OC(C)=O)[C@H](OC(C)=O)C(C)(C)[C@@H]5CC[C@]43C)[C@@H]12 : 1.3

Reported selectivity ratio for C=C(C)[C@@H]1CC[C@]2(C(=O)Nc3cccc4ncccc34)CC[C@]3(C)[C@H](CC[C@@H]4[C@@]5(C)C[C@H](OC(C)=O)[C@H](OC(C)=O)C(C)(C)[C@@H]5CC[C@]43C)[C@@H]12 was 19.2

Entry C=C(C)[C@@H]1CC[C@]2(C(=O)O)CC[C@]3(C)[C@H](CC[C@@H]4[C@@]5(C)C=C(O)C(=O)C(C)(C)[C@@H]5CC[C@]43C)[C@@H]12 , selectivity ratio reported as 1.1

According to the records, this molecule C=C(C)[C@@H]1CC[C@]2(C(=O)Nc3cccc4ncccc34)CC[C@]3(C)[C@H](CC[C@@H]4[C@@]5(C)CC[C@H](OC(C)=O)C(C)(C)[C@@H]5CC[C@]43C)[C@@H]12 displays selectivity ratio of 2.5

Consider C=C(C)[C@@H]1CC[C@]2(C(=O)O)CC[C@]3(C)[C@H](CC[C@@H]4[C@@]5(C)CC[C@H](OC(C)=O)C(C)(C)[C@@H]5CC[C@]43C)[C@@H]12 . Its measured selectivity ratio is 2.7

The recorded selectivity ratio for entry C=C(C)[C@@H]1CC[C@]2(C(=O)NCc3ccccc3)CC[C@]3(C)[C@H](CC[C@@H]4[C@@]5(C)C[C@H](OC(C)=O)[C@H](OC(C)=O)C(C)(C)[C@@H]5CC[C@]43C)[C@@H]12 equals 6.2
